Each recorded value in this set is attributed to patent US7056911B1.

# TGT: rat liver dihydrofolate reductase (Rattus norvegicus)
# Construct: dihydrofolate reductase (DHFR) from rat liver; from tissue; host or cells: rat liver
# Sequence (Q920D2 whole entry): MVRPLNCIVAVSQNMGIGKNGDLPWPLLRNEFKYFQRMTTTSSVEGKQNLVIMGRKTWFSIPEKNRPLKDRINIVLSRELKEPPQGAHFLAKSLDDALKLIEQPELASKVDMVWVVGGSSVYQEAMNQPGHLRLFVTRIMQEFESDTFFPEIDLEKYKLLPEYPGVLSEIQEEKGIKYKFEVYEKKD
# EXPERIMENT_DESCRIPTION: Dihydrofolate reductase inhibition, rat liver DHFR
# Assay type: biochemical
# SETTINGS: expt 2 (replicate assays on different days); read-out: DHFR inhibition (IC50 μM) rat liver

| SMILES_STR | IC50 |
| --- | --- |
| Nc1nc(N)c2nc(CN3c4ccccc4C=Cc4ccccc43)cnc2n1 | 9.3 µM |
